The values you see were collected from patent US8846698B2.

# study system: MDR1 (Homo sapiens (Human))
# Sequence (P08183 whole entry): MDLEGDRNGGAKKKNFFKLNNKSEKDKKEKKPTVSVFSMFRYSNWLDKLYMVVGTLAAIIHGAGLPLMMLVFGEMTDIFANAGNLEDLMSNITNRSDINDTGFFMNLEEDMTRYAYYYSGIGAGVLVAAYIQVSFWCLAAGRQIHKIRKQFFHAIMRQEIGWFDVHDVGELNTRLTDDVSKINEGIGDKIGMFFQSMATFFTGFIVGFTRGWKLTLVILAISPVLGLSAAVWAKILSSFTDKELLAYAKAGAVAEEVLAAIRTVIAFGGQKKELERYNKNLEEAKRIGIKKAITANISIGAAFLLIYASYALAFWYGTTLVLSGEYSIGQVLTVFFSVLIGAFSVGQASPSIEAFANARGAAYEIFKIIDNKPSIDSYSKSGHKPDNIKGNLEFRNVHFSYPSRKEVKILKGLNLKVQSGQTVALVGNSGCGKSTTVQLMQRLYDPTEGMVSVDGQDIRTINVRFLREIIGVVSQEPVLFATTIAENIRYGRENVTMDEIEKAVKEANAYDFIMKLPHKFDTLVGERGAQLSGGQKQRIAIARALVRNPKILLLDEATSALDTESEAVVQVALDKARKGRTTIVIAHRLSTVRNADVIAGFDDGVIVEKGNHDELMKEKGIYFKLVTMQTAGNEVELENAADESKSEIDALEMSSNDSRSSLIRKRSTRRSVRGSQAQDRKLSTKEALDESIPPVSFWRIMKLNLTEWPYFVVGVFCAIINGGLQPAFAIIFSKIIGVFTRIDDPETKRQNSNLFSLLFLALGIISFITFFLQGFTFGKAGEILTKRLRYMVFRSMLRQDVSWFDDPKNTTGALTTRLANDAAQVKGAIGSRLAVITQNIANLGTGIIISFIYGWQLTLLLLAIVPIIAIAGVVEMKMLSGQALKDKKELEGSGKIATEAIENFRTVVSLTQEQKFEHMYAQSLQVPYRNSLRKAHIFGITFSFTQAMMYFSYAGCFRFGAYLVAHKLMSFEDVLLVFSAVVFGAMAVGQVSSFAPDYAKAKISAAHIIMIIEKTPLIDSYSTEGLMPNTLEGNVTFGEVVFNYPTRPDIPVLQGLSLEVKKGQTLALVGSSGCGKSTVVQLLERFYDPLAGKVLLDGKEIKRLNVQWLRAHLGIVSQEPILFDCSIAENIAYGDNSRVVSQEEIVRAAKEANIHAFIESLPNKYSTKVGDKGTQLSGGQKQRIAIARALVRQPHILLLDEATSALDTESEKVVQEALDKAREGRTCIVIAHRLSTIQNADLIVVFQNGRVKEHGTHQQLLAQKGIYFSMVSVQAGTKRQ
# protocol text: MDCK-MDR1 assay (in vitro brain penetration)
# Format: in vitro ADME
# setup conditions: human; MDCK-MDR1, A to B; read-out: MDCK MDR1 Papp AB
Listed molecules paired with reported Papp A→B

Use these answered entries as a reference point.
| molecule | Papp A→B |
| --- | --- |
| CC(CO)n1cc(C(=O)c2cncc(NC(=O)Cc3ccc(Cl)cc3)c2)c2cnc(N)nc21 (single isomer, unassigned) [Example 34] | < 1 ×10⁻⁶ cm/s |
| C[C@H](CO)n1cc(C(=O)c2cncc(NC(=O)Cn3cc(C(F)(F)F)nn3)c2)c2cncnc21 [Example 21] | < 1 ×10⁻⁶ cm/s |

Continue with the next molecule.
Data request: Recorded Papp A→B for CC(C)(C)n1cc(C(=O)c2cncc(NC(=O)Cn3ccc(C(F)(F)F)n3)c2)c2cncnc21 [Example 5] with MDR1 (Homo sapiens (Human)), please?
Data returned: 1.5 ×10⁻⁶ cm/s
